I'd be grateful if you could share measured EC50 for these entries.
tgt: EBOV GP [change] (Zaire ebolavirus (EBOV), strain Makona)
test-method-notes: ELISA, coated recombinant GP ΔTM
One number for each entry, in µg/mL.

binder="EBOV-511 (antibody, V domains shown) VH: QLQLQESGPGLVKPSETLSLSCTVSGDSISANNYFWGWIRQPPGKELEWIGSIHNSGSTYYNPSLKSRVTTSVDTSRTQFSLKLHSVTAADAAIYYCARHLAPISGVIFIPSFFDSWGQGTLVTVSS VL: EIVMTQSPATLSVSPGERATLSCRASQSVSSNLAWYQQRPGQAPRLLIFDASTRATGVPARFSGSGSGTEFTLTISSLQSEDFALYYCQQYNDWPPRLTFGGGTKVEIK" recorded_value=0.094

Now examine the next entry.
Report EC50 for EBOV-451 (antibody, V domains shown) VH: EVQLVESGGSVVRPGGSLRLSCAASGFKFDEYGMSWVRQAPGKGLEWVSGITWNGGVRTYADSVKGRFTISRDNAKNSVYLQMKSLRGEDTALYYCVSWGERYDAYFDYWGQGTLVTVSS VL: EIVLTQSPGSLSLSPGERATLSCRASQSVNSRYFAWYQQRPGQAPRLLIYATSTRATGIPDRFSGSGSGTDFTLTISRLEPEDFAVYSCQQYGSSPYTFGQGTKLEIK please.
0.001
